Hello, the source for this data is paper PMC12547741, in case you need it.

biological target: His-DciA R106A (UniProt A0A0H3C5R2 1-179, R106A); test: EMSA; 150 mM K-glutamate; EMSA: 20 mM Tris-HCl pH 7.5, 10 mM Mg acetate, 50 or 150 mM K-glutamate, 0.1 mg/ml BSA, 10% glycerol, 2 mM ATP, 12.5 nM DNA, 5 min on ice; M13 pull-down: Tris pH 7.5, 10 mM Mg acetate, 50 mM K-glutamate, 0.1 mM ATP, 0.1 mg/ml BSA, 30 C; details: protein: recombinant; tags: N-terminal His6; label: 5'-FAM
Sequence (A0A0H3C5R2 entry or part of it R106A | R106A R106A): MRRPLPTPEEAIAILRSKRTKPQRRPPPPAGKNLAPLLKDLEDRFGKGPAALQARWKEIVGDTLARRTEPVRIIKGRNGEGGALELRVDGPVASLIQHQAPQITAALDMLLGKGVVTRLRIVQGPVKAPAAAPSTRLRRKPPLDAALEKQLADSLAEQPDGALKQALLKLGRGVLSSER
measured.quantity: pKd
pKd is a log-scale quantity: -log10 of the concentration expressed in molar.

# binder, pKd
rows = [
    ("TTTTTTTTTTTTTTTTTTTTTTTTTTTTTTTTTTT (ssDNA) [35-mer oligo 2201]", 6.27),
]

As a next step, examine the binder that follows.
[ask] Record request: pKd value, item 80-mer oligo 1790 (ssDNA) DNA: TCCTTGTTATCCACAGGGCAGTTTTTTTTTTTTTTTTTTTTTTTTTTTTTTTTTTTTTTTTGTGCGATATAGTTCTCCGA
[reply] 6.94
